// data source = PubChem BioAssay (NCI)

Assay: NCI Yeast Anticancer Drug Screen. Data for the bub3 strain (AID 167)
Details: S. cerevisiae bub3 mutant strain, at 50.0 µM, active compounds read high
Method: Growth inhibition of yeast strains with defined genetic alterations is measured as a screen for potential anti-cancer activity. Selected strains with alterations in DNA damage repair or cell cycle control were exposed to compounds and growth inhibition was measured relative to vehicle treated controls. The strain used in this assay is bub3
The panel holds about 79,000 compounds, 15% with a hit somewhere; the sample as a whole holds those more often.
Quick reference for growth inhibition among some compounds
// units = %; emit number, no label

In the examples that follow, each entry is paired with its recorded growth inhibition.
O=NNc1nc2ncccc2cc1-c1ccccc1Cl | -22.2
[N-]=[N+]=Nc1cc(=O)n(-c2ccccc2)c(=O)n1-c1ccccc1 | 10.3
O=C(O)CN(CCCCN(CC(=O)O)CC(=O)O)CC(=O)O | 16.4
CN(C)CCC(OC(=O)c1ccccc1Cl)c1ccccc1 (stereo unspecified) | 8.75

Value lookup for growth inhibition; key = "Nc1nc(N)c2nc3c(nc2n1)CCCC3" -13.1

// query growth inhibition value for entry "Cc1c(-c2ccccc2)nc(N(C)C)oc1=O" -16.2

What measured growth inhibition goes with "C=C1N(C)c2ccccc2C1(C)C" ? 6.2

Quick one: growth inhibition for "COc1c2occc2c(S(=O)(=O)O)c2ccc(=O)oc12" ? -40.6

Could you share which growth inhibition value was measured for COc1cc2c(c(C3(O)C(=O)N(C)c4ccccc43)c1OC)OCO2 (stereo unspecified) ? -52.6

// returns reported growth inhibition for input "Cc1ccccc1NC(=O)C(C)C" 15.2
